These measurements were taken from patent US20090215758A1.

tested_target: vanilloid receptor 1 (VR1/TRPV1) of the rat species (Rattus norvegicus)
Construct: The spinal column is removed from beheaded rats; from tissue; host or cells: primary cells from rat dorsal root ganglia (DRGs)
Sequence (O35433 whole entry): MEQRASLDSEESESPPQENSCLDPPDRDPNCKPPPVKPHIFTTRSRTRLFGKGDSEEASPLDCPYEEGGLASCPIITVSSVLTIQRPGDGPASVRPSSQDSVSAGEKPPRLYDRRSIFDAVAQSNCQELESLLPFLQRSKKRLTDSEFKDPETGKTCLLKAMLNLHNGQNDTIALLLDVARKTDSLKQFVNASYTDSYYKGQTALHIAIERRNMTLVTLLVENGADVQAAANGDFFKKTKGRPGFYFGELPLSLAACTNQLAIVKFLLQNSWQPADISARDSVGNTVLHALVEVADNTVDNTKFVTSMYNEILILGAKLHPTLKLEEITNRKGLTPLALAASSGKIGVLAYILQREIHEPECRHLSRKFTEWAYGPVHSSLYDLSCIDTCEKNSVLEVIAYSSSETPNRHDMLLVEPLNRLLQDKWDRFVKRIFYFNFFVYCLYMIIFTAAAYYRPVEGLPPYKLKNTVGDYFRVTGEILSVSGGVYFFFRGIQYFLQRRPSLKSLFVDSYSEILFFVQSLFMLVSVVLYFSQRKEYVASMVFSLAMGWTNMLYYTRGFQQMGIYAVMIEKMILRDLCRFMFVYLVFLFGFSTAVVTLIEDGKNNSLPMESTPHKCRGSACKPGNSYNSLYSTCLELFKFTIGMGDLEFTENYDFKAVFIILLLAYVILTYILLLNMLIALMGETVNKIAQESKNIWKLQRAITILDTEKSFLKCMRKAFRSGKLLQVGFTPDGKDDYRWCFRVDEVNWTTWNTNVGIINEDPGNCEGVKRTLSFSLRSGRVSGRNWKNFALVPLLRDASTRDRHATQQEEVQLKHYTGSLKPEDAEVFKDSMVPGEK
procedure_details: Functional study on vanilloid receptor 1, FLIPR Ca2+ assay in rat dorsal root ganglia cells
Format: cell-based
condition_description: test compound 10 μM; Ca2+ signal relative to 10 μM capsaicin (CP); read-out: VR1 (rat) (% stimulation compared to 10 μM CP)
Counter-ions that a name gives are not always drawn.
value_type: activation at 10 µM (%)

{"columns": ["compound", "activation at 10 µM, %"],
 "data": [
  ["CC(=CC=C1SC(N2CCOCC2)=NC1=O)c1ccc(C(C)(C)C)cc1", 101],
  ["O=C1N=C(N2CCSCC2)SC1=Cc1cccc2ccccc12", 87],
  ["O=C1N=C(N2CCSCC2)SC1=Cc1ccc(OC(F)(F)F)cc1", 110]
]}

(1) O=C1N=C(N2CCSCC2)SC1=Cc1cccc(C(=O)N2CCN(c3ncc(C(F)(F)F)cc3Cl)CC2)c1
(2) O=C1N=C(N2CCSCC2)SC1=Cc1cccc(C(=O)N2CCN(c3ncccc3Cl)CC2)c1
(3) CC(=CC=C1SC(N2CCOCC2)=NC1=O)c1cccc(C(F)(F)F)c1
(4) Cc1ccc(C=CC=C2SC(N3CCOCC3)=NC2=O)cc1
(5) O=C1N=C(N2CCCCC2)SC1=CC=Cc1ccccc1 [Example 191, hydrobromide]
Task item: Sort the 5 compounds by activation at 10 µM; largest first, smallest last. State the ranking by listing the labels in the requested order.
Reply: 1, 2, 3, 4, 5
(1: 136%, 2: 72.8%, 3: 39.6%, 4: 11.7%, 5: -0.17%)

---

tested_target: VR1 (human) (Homo sapiens)
Construct: expressed in transfected cells; host or cells: CHO K1 cells (ECACC), stably transfected
Sequence (Q8NER1 whole entry): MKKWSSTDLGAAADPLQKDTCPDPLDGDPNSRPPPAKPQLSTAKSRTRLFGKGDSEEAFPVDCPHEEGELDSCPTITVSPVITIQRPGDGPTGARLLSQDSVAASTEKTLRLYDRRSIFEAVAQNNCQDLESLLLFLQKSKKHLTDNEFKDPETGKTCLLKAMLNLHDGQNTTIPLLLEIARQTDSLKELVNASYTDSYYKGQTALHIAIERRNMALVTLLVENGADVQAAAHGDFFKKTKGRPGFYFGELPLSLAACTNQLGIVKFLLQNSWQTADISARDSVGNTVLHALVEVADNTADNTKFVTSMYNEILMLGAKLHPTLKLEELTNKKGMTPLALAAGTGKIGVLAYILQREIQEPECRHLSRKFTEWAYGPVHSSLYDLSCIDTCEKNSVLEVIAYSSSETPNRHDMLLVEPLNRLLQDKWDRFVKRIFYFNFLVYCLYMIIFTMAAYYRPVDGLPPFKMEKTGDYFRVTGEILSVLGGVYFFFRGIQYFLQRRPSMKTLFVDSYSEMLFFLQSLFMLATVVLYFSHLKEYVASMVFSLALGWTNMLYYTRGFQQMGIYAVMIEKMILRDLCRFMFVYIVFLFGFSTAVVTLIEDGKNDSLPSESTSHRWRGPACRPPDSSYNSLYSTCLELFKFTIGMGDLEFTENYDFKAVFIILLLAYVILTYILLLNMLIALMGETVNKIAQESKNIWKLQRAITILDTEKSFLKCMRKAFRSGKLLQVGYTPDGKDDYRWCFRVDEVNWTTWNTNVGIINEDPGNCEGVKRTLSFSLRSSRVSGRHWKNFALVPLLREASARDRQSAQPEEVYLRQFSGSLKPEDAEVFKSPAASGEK
procedure_details: Functional study on vanilloid receptor (VR1), FLIPR Ca2+ assay in CHO K1 cells stably transfected with the VR1 gene
Assay type: cell-based
condition_description: CHO-K1, test compound 10 μM, 5 min incubation, then 100 nM capsaicin; compared to 10 μM CP
Counter-ions that a name gives are not always drawn.
value_type: inhibition at 10 µM (%)

Worked examples follow.
{"columns": ["compound", "tested_target", "value_measured"],
 "data": [
  ["O=C1N=C(N2CCSCC2)SC1=Cc1cccc(C(F)(F)F)c1 [Example 195, hydrobromide]", "VR1 (human) (Homo sapiens)", 90.3],
  ["COc1ccc(C=C2SC(N3CCOCC3)=NC2=O)cc1OCc1ccccc1", "VR1 (human) (Homo sapiens)", 11.1],
  ["O=C1N=C(N2CCSCC2)SC1=Cc1ccc(OC(F)(F)F)cc1", "VR1 (human) (Homo sapiens)", 61.6],
  ["O=C1N=C(N2CCOCC2)SC1=Cc1ccc(Oc2ccccc2)cc1", "VR1 (human) (Homo sapiens)", 19.6],
  ["O=C(NC1=NC(=O)C(=Cc2ccc(C(F)(F)F)cc2)S1)Nc1ccccc1C(F)(F)F", "VR1 (human) (Homo sapiens)", 54.6]
]}

(P) O=C1N=C(N2CCOCC2)SC1=Cc1ccccn1
(Q) CC(=CC=C1SC(N2CCOCC2)=NC1=O)c1cccc(C(F)(F)F)c1
(R) O=C1N=C(N2CCCCCC2)SC1=CC=Cc1ccccc1 [Example 192, hydrobromide]
Task item: Sort the 3 compounds by inhibition at 10 µM; largest first, smallest last. State the ranking by listing the labels in the requested order.
Reply: Q, R, P
(Q: 34.3%, R: 10.3%, P: 3.03%)

(A) CC(=CC=C1SC(N2CCOCC2)=NC1=O)c1ccc(C)cc1
(B) O=C1N=C(N2CCSCC2)SC1=Cc1cccc(C(=O)N2CCN(c3ncccc3Cl)CC2)c1
(C) COc1cc(C=C2SC(N3CCN(c4ccccc4)CC3)=NC2=O)ccc1O
Task item: Sort the compounds on inhibition at 10 µM; start with the lowest figure. State the ranking by listing the labels in the requested order.
Reply: A, C, B

(1) O=C1N=C(N2CCOCC2)SC1=CC=Cc1ccccc1 [Example 189, hydrobromide]
(2) O=C1N=C(N2CCN(c3ncccc3Cl)CC2)SC1=Cc1ccc2ccccc2c1
(3) COCCNC1=NC(=O)C(=Cc2ccc(C(C)(C)C)cc2)S1 [Example 216, hydrobromide]
Task item: Sort the compounds on inhibition at 10 µM; start with the lowest figure. State the ranking by listing the labels in the requested order.
Reply: 1, 2, 3

---

tested_target: vanilloid receptor 1 (VR1/TRPV1) of the rat species (Rattus norvegicus)
Construct: The spinal column is removed from beheaded rats; from tissue; host or cells: primary cells from rat dorsal root ganglia (DRGs)
procedure_details: Functional study on vanilloid receptor 1, FLIPR Ca2+ assay in rat dorsal root ganglia cells
Assay type: cell-based
condition_description: test compound 10 μM; Ca2+ signal relative to 10 μM capsaicin (CP); read-out: VR1 (rat) (% stimulation compared to 10 μM CP)
Where a name gives a salt, the structure may show the parent alone.
value_type: activation at 10 µM (%)

Worked examples follow.
{"columns": ["compound", "tested_target", "activation at 10 µM (%)"],
 "data": [
  ["COc1ccc(C=C2SC(N3CCOCC3)=NC2=O)cc1OCc1ccccc1 [Example 13]", "vanilloid receptor 1 (VR1/TRPV1) of the rat species (Rattus norvegicus)", 42.1],
  ["Br.Cc1ccc(C=C2SC(N3CCOCC3)=NC2=O)cc1 [Example 176, hydrobromide]", "vanilloid receptor 1 (VR1/TRPV1) of the rat species (Rattus norvegicus)", 44.7]
]}

(I) O=C1N=C(N2CCOCC2)SC1=Cc1ccc(OCc2ccccc2)cc1 [Example 21]
(II) CC(C)(C)c1ccc(C=C2SC(N3CCCCCC3)=NC2=O)cc1 [Example 200, hydrobromide]
Task item: Could you tell me which of these two has the smaller activation at 10 µM figure? First: I Second: II Field: selected label. Fill in the label of the entry you choose.
Reply: II

---

tested_target: VR1 (human) (Homo sapiens)
Construct: expressed in transfected cells; host or cells: CHO K1 cells (ECACC), stably transfected
procedure_details: Functional study on vanilloid receptor (VR1), FLIPR Ca2+ assay in CHO K1 cells stably transfected with the VR1 gene
Format: cell-based
condition_description: CHO-K1, test compound 10 μM, 5 min incubation, then 100 nM capsaicin; compared to 10 μM CP
Structures can show the parent of a compound that is named as a salt.
value_type: inhibition at 10 µM (%)

{"columns": ["compound", "value_type", "value_measured"],
 "data": [
  ["CC(C)(C)c1ccc(C=C2SC(N3CCCCCC3)=NC2=O)cc1 [Example 200, hydrobromide]", "inhibition at 10 µM", 2.12],
  ["O=C1N=C(N2CCSCC2)SC1=Cc1ccc2ccccc2c1", "inhibition at 10 µM", 81.7],
  ["O=C1N=C(N2CCOCC2)SC1=Cc1cccc(C(F)(F)F)c1 [Example 205, hydrobromide]", "inhibition at 10 µM", 103],
  ["CC(C)(C)c1ccc(C=C2SC(N3CCSCC3)=NC2=O)cc1 [Example 198, hydrobromide]", "inhibition at 10 µM", 76.7],
  ["O=C1N=C(N2CCSCC2)SC1=Cc1cccc(C(=O)N2CCN(c3nsnc3Cl)CC2)c1", "inhibition at 10 µM", 66.2],
  ["O=C1N=C(N2CCOCC2)SC1=Cc1ccc(OC(F)(F)F)cc1", "inhibition at 10 µM", 68.8]
]}

(a) Cc1ccc(C=C2SC(N3CCN(c4ncccc4Cl)CC3)=NC2=O)cc1
(b) O=C1N=C(N2CCCCC2)SC1=CC=Cc1ccccc1 [Example 191, hydrobromide]
(c) COc1cc(C=C2SC(N3CCSCC3)=NC2=O)ccc1O
Task item: Sort the compounds on inhibition at 10 µM; start with the lowest figure. State the ranking by listing the labels in the requested order.
Reply: b, c, a

---

tested_target: vanilloid receptor 1 (VR1/TRPV1) of the rat species (Rattus norvegicus)
Construct: The spinal column is removed from beheaded rats; from tissue; host or cells: primary cells from rat dorsal root ganglia (DRGs)
procedure_details: Functional study on vanilloid receptor 1, FLIPR Ca2+ assay in rat dorsal root ganglia cells
Format: cell-based
condition_description: test compound 10 μM, 5 min incubation, then 100 nM capsaicin; relative to maximum inhibition with 10 μM capsaicin; read-out: VR1 (rat) (% inhibition compared to 10 μM CP)
Structures can show the parent of a compound that is named as a salt.
value_type: inhibition at 10 µM (%)

Worked examples follow.
{"columns": ["molecule", "tested_target", "inhibition at 10 µM (%)"],
 "data": [
  ["O=C1N=C(N2CCCCC2)SC1=CC=Cc1ccccc1 [Example 191, hydrobromide]", "vanilloid receptor 1 (VR1/TRPV1) of the rat species (Rattus norvegicus)", 17.6],
  ["O=C1N=C(N2CCSCC2)SC1=Cc1cccc2ccccc12 [Example 41]", "vanilloid receptor 1 (VR1/TRPV1) of the rat species (Rattus norvegicus)", 90.9],
  ["COc1cc(C=C2SC(N3CCSCC3)=NC2=O)ccc1O [Example 39]", "vanilloid receptor 1 (VR1/TRPV1) of the rat species (Rattus norvegicus)", 51]
]}

(a) O=C1N=C(N2CCSCC2)SC1=Cc1cccc(C(=O)N2CCN(c3nsnc3Cl)CC2)c1 [Example 115]
(b) O=C1N=C(N2CCOCC2)SC1=Cc1ccc(OCc2ccccc2)cc1 [Example 21]
Task item: Could you tell me which of these two has the smaller inhibition at 10 µM figure? First: a Second: b Field: selected label. Fill in the label of the entry you choose.
Reply: b
(b: 50.1%, a: 95.8%)
